Test system: TK-10 renal
TEST_METHOD_NOTES: NCI tumour cell line growth inhibition, 48 h
PROPERTY: TGI

- COMPOUND: "Clc1nc(Cl)c2ncn(CC3(Cn4cnc5c(Cl)nc(Cl)nc54)COC3)c2n1"
  TGI: "1.2 µM"
- COMPOUND: "O=c1[nH]nc(-c2ccccc2)n1Nc1ccccc1"
  TGI: "> 100 µM"
- COMPOUND: "NC(=O)C(=O)N/N=C1\\C(=O)N(c2ccc(Cl)cc2Cl)C(=O)C1C(=O)Nc1ccc(Cl)cc1Cl (stereo not given)"
  TGI: "> 100 µM"
- COMPOUND: "CC(=O)N1C(OC(C)C)CC(C)N1c1ccccc1 (stereo not given)"
  TGI: "> 10 µM"

Lab book: TGI of O=C(O)C1=C(O)C(C(=O)O)C23CCCCCCCCCCC12C(C(=O)O)C(O)=C3C(=O)O (stereo not given) noted as > 100 µM
